ASSAYED_TARGET: Tyrosyl-tRNA synthetase, putative (Trypanosoma cruzi (strain CL Brener)) (UniProt Q4DSP6)
Sequence (Q4DSP6 as listed by the source): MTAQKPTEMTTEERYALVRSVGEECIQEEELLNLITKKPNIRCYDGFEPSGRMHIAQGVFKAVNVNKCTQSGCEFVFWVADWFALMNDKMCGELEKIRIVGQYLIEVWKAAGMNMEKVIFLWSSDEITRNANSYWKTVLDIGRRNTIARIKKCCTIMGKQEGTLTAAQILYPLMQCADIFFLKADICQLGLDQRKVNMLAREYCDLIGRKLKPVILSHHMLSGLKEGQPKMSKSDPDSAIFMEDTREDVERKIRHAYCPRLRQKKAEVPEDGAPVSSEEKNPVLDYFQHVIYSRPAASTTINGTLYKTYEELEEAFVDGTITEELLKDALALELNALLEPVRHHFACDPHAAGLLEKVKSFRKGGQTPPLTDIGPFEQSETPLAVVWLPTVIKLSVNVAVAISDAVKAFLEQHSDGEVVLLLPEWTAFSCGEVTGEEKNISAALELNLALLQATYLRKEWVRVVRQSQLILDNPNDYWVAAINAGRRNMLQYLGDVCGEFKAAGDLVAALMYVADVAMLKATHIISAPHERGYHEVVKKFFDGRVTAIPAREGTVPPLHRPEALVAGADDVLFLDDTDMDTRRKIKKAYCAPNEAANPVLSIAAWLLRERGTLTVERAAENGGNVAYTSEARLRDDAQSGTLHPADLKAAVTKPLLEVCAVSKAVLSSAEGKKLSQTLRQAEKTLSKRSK
MEASUREMENT_PROTOCOL: Trypanosoma cruzi tyrosyl tRNA synthetase (TcYRS) _High Tyrosine SOP; further: in the data most compounds retested in dose-response had high values
Assay type: functional
Parameters: scale not given: direction of the effect not stated beside the values
RUN_CONDITIONS: 30 µM
Kindly supply the reported Percent Effect values for the records listed here.
Form entry: value (%) — number only.

[in] What reported Percent Effect corresponds to O=C(CCc1nc2cccnc2[nH]1)NCc1cccnc1 on Tyrosyl-tRNA synthetase, putative (Trypanosoma cruzi (strain CL Brener)) (UniProt Q4DSP6)?
[out] 8.47

[in] How about this molecule: CC(C)CCNC(=O)c1sccc1N(C)S(=O)(=O)c1ccccc1
[out] -3.19

[in] How about this molecule: COc1ncccc1C(=O)N1CCC(c2nnc(C3CC3)o2)CC1
[out] 4.23

[in] How about this molecule: CNC(=O)[C@@]12CCCN(c3ncccn3)[C@@H]1CN(C(=O)NC(C)C)C2
[out] -6.35

[in] How about this molecule: OCCN1CCN(Cc2coc(-c3ccc(Cl)cc3)n2)CC1
[out] 0

[in] How about this molecule: O=C([C@@H]1CC[C@@H]2[C@@H](CCN2Cc2cccc(F)c2)O1)N1CCCCO1
[out] 2.08

[in] How about this molecule: COc1cc(C)nc(N2CCN(C(=O)CCc3nccs3)CC2)n1
[out] -2.65

[in] How about this molecule: COc1ncccc1NC(=O)N1CCC(CNC(C)=O)CC1
[out] 4.92

[in] How about this molecule: COCC1CN(Cc2cc(C)on2)Cc2cn(C)nc21 (stereo unspecified)
[out] 6.25

[in] How about this molecule: O=C(c1ccc(O)c(Cl)c1)N1CCC(c2n[nH]c(C3CC3)n2)CC1
[out] 1.04

[in] How about this molecule: Cc1nc(C)n(C2CCCN(C(=O)c3cc4ccccc4n3C)C2)n1 (stereo unspecified)
[out] 7.62

---

Kindly supply the reported Percent Effect values for the records listed here.
ASSAYED_TARGET: Protein translocase subunit SecA (Escherichia coli (strain K12)) (UniProt P10408)
Sequence (P10408 whole entry): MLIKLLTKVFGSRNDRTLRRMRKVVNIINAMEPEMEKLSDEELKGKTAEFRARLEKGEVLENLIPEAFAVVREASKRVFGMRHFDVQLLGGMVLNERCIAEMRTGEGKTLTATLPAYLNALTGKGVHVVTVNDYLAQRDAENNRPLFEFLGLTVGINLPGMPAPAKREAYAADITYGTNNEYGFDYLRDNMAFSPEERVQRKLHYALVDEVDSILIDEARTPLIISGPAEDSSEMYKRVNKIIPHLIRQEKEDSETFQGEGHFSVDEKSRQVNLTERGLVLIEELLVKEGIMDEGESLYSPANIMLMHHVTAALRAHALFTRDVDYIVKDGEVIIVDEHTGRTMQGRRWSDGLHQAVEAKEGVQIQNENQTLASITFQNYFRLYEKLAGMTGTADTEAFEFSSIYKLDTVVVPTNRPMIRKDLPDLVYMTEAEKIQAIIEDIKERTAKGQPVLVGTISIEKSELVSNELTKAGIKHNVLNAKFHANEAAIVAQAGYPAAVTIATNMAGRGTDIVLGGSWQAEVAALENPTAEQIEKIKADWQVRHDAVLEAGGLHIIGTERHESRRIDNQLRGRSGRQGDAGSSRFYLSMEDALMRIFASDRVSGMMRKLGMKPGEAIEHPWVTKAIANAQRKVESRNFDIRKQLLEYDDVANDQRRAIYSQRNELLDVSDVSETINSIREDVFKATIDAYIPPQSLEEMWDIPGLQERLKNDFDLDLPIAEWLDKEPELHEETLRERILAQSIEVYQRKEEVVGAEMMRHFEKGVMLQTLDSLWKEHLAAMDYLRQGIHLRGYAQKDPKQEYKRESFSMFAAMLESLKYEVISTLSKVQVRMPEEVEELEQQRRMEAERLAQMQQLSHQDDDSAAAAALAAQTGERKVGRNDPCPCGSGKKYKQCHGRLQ
MEASUREMENT_PROTOCOL: Assay to Identify E. coli SecA ATPase Inhibitors
Format: functional
Design: scale not given: direction of the effect not stated beside the values
RUN_CONDITIONS: 30 µM
Entries with a potency or affinity are not part of this list.
Form entry: value (%) — number only.

[in] Name the reported Percent Effect value associated with the compound Cc1cnn(CC2CN(Cc3nnc(C4CC4)o3)CCO2)c1 (stereo unspecified)
[out] -7.99

[in] How about this compound: COC(=O)C(NC(=O)C(C)C)c1cc(F)ccc1F (stereo unspecified)
[out] -3.03

[in] How about this compound: CNC(=O)c1cc2c(nc1NCC1CC1)CCN(S(=O)(=O)C1CC1)CC2
[out] -0.616

[in] How about this compound: CCc1ccc(NS(=O)(=O)CC2=NC(=O)n3cccc3C2=O)cc1
[out] 1.25

[in] How about this compound: Cc1ccc(S(=O)(=O)N2CCc3nc(C4CCNCC4)ncc3C2)cc1
[out] -3.69

[in] How about this compound: CC(=O)N1CCCN(C(=O)NCCc2ccc(Cl)s2)CC1
[out] -2.98

[in] How about this compound: O=C(NCC1CCOC1)c1csc(-c2ccco2)n1 (stereo unspecified)
[out] -2.71

[in] How about this compound: CCn1nc2c(cc1=O)CN(Cc1nc3ccccc3c(=O)[nH]1)CC2
[out] -5.88

[in] How about this compound: O=C(c1ccc[nH]1)N1CCN(CC2CCOc3ccccc3C2)CC1 (stereo unspecified)
[out] -7.81

[in] How about this compound: CCc1noc(C(C)N2CCN(Cc3nc(C)c(C)o3)CC2)n1 (stereo unspecified)
[out] -2.85

[in] How about this compound: CCc1nnc2n1CCN(Cc1csc(-c3cnn(C)c3)n1)C2
[out] -3.51
